Data credit: patent US20240158500A1

Below is a list of entries, each paired with its recorded koff value.
Biological target: T1, purified CD160 (SPR analyte) (UniProt O95971 25-159, limits assumed)
T1 sequence (looked up): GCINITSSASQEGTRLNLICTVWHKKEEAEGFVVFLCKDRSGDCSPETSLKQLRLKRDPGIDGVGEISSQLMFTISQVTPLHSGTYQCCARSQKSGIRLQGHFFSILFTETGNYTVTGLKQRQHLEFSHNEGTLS
Test: SPR, Biacore T200, scFv captured on CM5 chip, CD160 as analyte, single-cycle kinetics, 1:1 Langmuir fit
parameter: koff (s⁻¹)

- anti-CD160 scFv clone 12 (scFv, Rat scFv, VH-linker-VL) scFv: EVQLVESGGGFVQPGGSLKLSCAASGFTFSNYGMAWVRQAPKKGLEWVASISSGRGNTYYRDSVKGRFTISRDNAKNTQYLQMDSLRSEDTATYYCVTHNYESTIFDYWGQGVMVTVSSGGGGSGGGGSGGGGSEIVLTQSPTTMTASPGEKVTIICRASSSVSYMHWYQQKPGASPKPWIYETSKLASGVPDRFSGSGSGTSYSLTFNNMEAEDAATYYCQQWNYPSMYTFGAGTKLELKR: 1.75e-07
- anti-CD160 scFv clone 5 (C10) (scFv, Rat scFv, VH-linker-VL; also called 010) scFv: QVQLKESGPGLVQPSETLSLTCTVSGFSLTNYGINWFRQPPGKGLEWMGTIWNDGGTDYNSALKSRLTISRDTSKSQVFLKMNSLQTEDTAIYFCARGMEAWGQGASVTVSSGGGGSGGGGSGGGGSDIQLTQSPSLLSASVGDRVTLSCKGSQNINNYLAWYQQKLGEAPKLLIYNTNSLQTGIPSRFSGSGSGTDYTLTISSLQPEDFATYFCLQHNSGYTFGAGTKLEIKR: 0.0305
- anti-CD160 scFv clone 19 (scFv, Rat scFv, VH-linker-VL) scFv: EVKLVESGGGLVQPGRSLKLSCAASGFTFSNYGMAWVRQAPTKGLEWVATISNGGGNTYYRDSVKGRFTISRDNAKNTQYLQMDSLRSEDTATYYCVAHNYESTVFDYWGQGAMVTVSSGGGGSGGGGSGGGGSEIVLTQSPTPMTASPGEKVTITCRASSSVSYMHWYQQKPGASPKPWIYETSKLASGVPDRFSGSGSGTSYSLTINNMEAEDAATYYCQQWNYPSMYTFGAGTKLELKR: 0.000833
- anti-CD160 scFv clone 2 (C25) (scFv) scFv: EVQLVESGGDLVQPGRSLKLSCAASGFTFSNYGMAWVRQAPTKGLEWVASVSNGGGNTYYRDSVKGRFTISRDNAKNTQYLQMDSLRSEDTATYYCVTHNYESTVFDYWGQGAMVTVSSGGGGSGGGGSGGGGSEIVLTQSPTTMTASPGEKVTITCRASSSVSYMHWYQQKPGASPKPWIYETSKLASGVPDRFSGSGSGTSYSLTINNMEAEDAATYYCQQWNYPSMYTFGPGTKLELKR: 6.51e-05
- anti-CD160 scFv clone 11 (PB10) (scFv, Rat scFv, VH-linker-VL) scFv: EVQLVESGGGLVQPGRSLKLSCAASGFTFSNYGMAWVRQAPTKGLEWVASINTSGGSTYYRDSVKGRFTISRDNAKSTLYLQMDSLRSEDTATYYCATIYYHDGSYYYAGWFAYWGQGTLVTVSSGGGGSGGGGSGGGGSDIVLTQSPALAVSPGERVSISCRASESVSTLMHWYQQKLGQQPKLLIYGASNLESGVPARFSGSGSGTDFTLNIDPVEADDIATYFCQQSWNGPWTFGGGTKLELKR: 0.00125
- anti-CD160 scFv clone 6 (SC14) (scFv, Rat scFv, VH-linker-VL) scFv: EVQLVESGGGFVQPGRSLKLSCAASGFTFSNYAMAWVRQAPTKGLEWVASINSGGGDSYYRDSVKGRFTISRDNAKNTQYLQMDSLRSEDTATYYCATHNYGSTIFDYWGQGAMVTVSSGGGGSGGGGSGGGGSEIILTQSPTTMTASPGEKVTITCRASSSVSYMHWYQQKPGASPKPWIYETSKLASGVPDRFSGSGSGTSYSLTINNMEAEDAATYYCQQWNYPSMYTFGAGTKLELKR: 0.000143
- anti-CD160 scFv clone 10 (scFv, Rat scFv, VH-linker-VL) scFv: EVQLVESGPGLVQPSETLSLTCTVSGFSLTSYGVNWFRQPPGKGLEWMGTIWNDGGTDYNSALKSRLSISRDTSKSQVFLKMNSLQTEDTAIYFCARGFEYWGQGTLVTVSSGGGGSGGGGSGGGGSDIVMTQSPKSMSISVGDRVTMNCKASQNVGKNIAWYQQKPGQSPKLLIYYASNRYTGVPDRFTGSGSGTDFTLTITNMQTEDLAVYYCLQYNYNPWTFGGGTKLELKR: 0.00245
- anti-CD160 scFv clone 9 (PB6) (scFv, Rat scFv, VH-linker-VL) scFv: EVQLVESGGGLVQPGRSLKLSCAASGFTFSNYAMAWVRQAPTKGLEWVASISSGGGDTYYRDSVKGRFTISRDNSKNTQYLQMDSLRSEDTATYYCATHNYESTVLITWGQGASVTVSSGGGGSGGGGSGGGGSEIVLTQSPTTTAASPGERVTITCRASSSVSYMHWYQQKPGASPKPWIYETSKLASGVPDRFSGSGSGTSYSLTINNMEAEDAATYYCQQWNYPSMYTFGAGTKLEIKR: 0.00211
- anti-CD160 scFv clone 8 (PB9) (scFv, Rat scFv, VH-linker-VL) scFv: QVNLQESGPGLVQPSETLSLTCTVSGFSLTNYGINWFRQPPGKGLEWMGTIWNDGGTDYNSALKSRLSISRDTSKSQVFLKMNSLQTEDTAIYFCARGMDAWGQGASVTVSSGGGGSGGGGSGGGGSDIQMTQSPASLSASLGETVSIECLASEDIYNNLAWYQQKPGKSPQLLIYYANSLQDGVPSRFSGSGSGTQYSLKINSLQSEDVATYFCQQYNNYPFTFGSGTKLELKR: 0.00804
- anti-CD160 scFv clone 7 (scFv, Rat scFv, VH-linker-VL) scFv: EVQLVESGPGLVQPSETLSLTCTVSGFSLTSHGVNWFRQPPGKGLEWMGTIWNDGGTDYNSALKSRLSIIRDTSKGQVFLKMNSLQTEDTAIYFCARGLAYWGQGTLVTVSSGGGGSGGGGSGGGGSDIQMTQSPASLSASLGETVNIECLASEDIYSDLAWYQQKPGKSPQLLIYNANSLQNGVPSRFSGSGSGTQYSLKINSLQSEDVATYFCQQYNNYPWTFGGGTKLEIKR: 0.00035
